- System: M14 melanoma
- method-notes: NCI-60 one-dose screen, 48 h
- experimental-conditions: 10 µM unless noted
Compounds without any hit were thinned out: in the full panel of roughly 83,000, 20% have a hit. The source made the active and inactive calls. How the source made its calls: active means growth percent below 10; inactive means the rest.
Choose the fitting class; nothing outside active, inactive is accepted.

Below, 8 compounds whose answers are already recorded.
- compound: "CCCCCCCCCCCCCCCCNC(=S)N/N=C/c1ccc(OC)cc1"
  cat: "inactive"
- compound: "CC(Br)c1nc2ccccc2cc1C(N)=O (centres undefined)"
  cat: "inactive"
- compound: "Cc1c([C@H](C(Cl)Cl)[C@H](O)[C@H]2C[C@H](C)C(=O)O2)ccc2c1C(=O)[C@H]1[C@H]2C[C@@H](Br)[C@@]23O[C@@H](CO[C@H]2O)CC13C (some centres undefined)"
  cat: "inactive"
- compound: "CC1(C)NCCC[C@]2(C)[C@H]3CC=C4[C@@H]5C[C@](C)(COC(=O)c6ccccc6C(=O)O)CC[C@]5(C)CC[C@@]4(C)[C@]3(C)CC[C@@H]12"
  cat: "inactive"
- compound: "COc1cccc2c1n([O-])c1cccc(OC)c1[n+]2=O"
  cat: "inactive"
- compound: "Cc1ccc(C(=O)Nc2ccc(CN3CCN(C)CC3)c(C(F)(F)F)c2)cc1C#Cc1cnc(N)c2ccc(C#N)cc12"
  cat: "active"
- compound: "NC(N)=N/N=C/c1cccc(Br)c1"
  cat: "inactive"
- compound: "C[n+]1c2ccccc2c(Nc2ccc(NS(=O)(=O)CCCCN=C(N)N)cc2)c2ccc(N)cc21"
  cat: "inactive"

Attention now shifts to the item below.
Query block: Recorded test outcome, item "Clc1ccc(I)c2ccccc12"
Result block: inactive

###

- Tested on: ACHN renal
- method-notes: NCI-60 one-dose screen, 48 h (100 = growth as untreated, 0 = no growth, -100 = all killed)
- experimental-conditions: 10 µM unless noted
About 83,000 compounds went through this panel and 20% of them were active in at least one assay; those are over-represented in the sample as a whole.
test-readout: growth (%)
Field format: number, assumed %, no unit text.

Here are 5 molecules together with their reported answers.
- molecule: "Nc1nc(-c2cccc(Br)c2)cc(-c2cc3ccccc3oc2=O)n1"
  growth / %: 98.2
- molecule: "CC(=O)/C(=C\\c1c(-c2ccccc2)[nH]c2ccccc12)S(=O)(=O)c1ccccc1"
  growth / %: 28.2
- molecule: "N#Cc1ccc(NC2c3ccccc3CC2O)cc1 (stereo unspecified)"
  growth / %: 104
- molecule: "CC(=O)Nc1nc(C)c(C(=O)NN)s1"
  growth / %: 93.6
- molecule: "N/C(=N\\O)c1ccncc1"
  growth / %: 103

# next molecule below
Query block: Checklist item: growth tested on ACHN renal, entry "Cc1nnc(/N=C2\NC(=O)/C(=C/C=C/c3ccccc3)S2)s1" , value?
Result block: 50.8

###

- Tested on: M14 melanoma
- method-notes: NCI-60 one-dose screen, 48 h
- experimental-conditions: 10 µM unless noted
Compounds without any hit were thinned out: in the full panel of roughly 83,000, 20% have a hit. Active and inactive are the calls of the source. How the source made its calls: active means growth percent below 10; inactive means the rest.
Choose the fitting class; nothing outside 1.0 = active, 0.0 = inactive is accepted.

- compound: "COC(=O)/C=C1/CCCCC1(C)C(=O)OC (stereo unspecified)"
  measured-on: "M14 melanoma"
  cat: 0.0

Query block: Recorded test outcome, item "C/C(CCC(=O)O)=N/Nc1ccc([N+](=O)[O-])cc1"
Result block: 0.0

Query block: Recorded test outcome, item "CC1C(=O)CCCC1=O"
Result block: 0.0

Query block: Recorded test outcome, item "COC(=O)/C=C/c1cc(O)c2oc(-c3ccc(O)c(O)c3)c(C(=O)OC)c2c1"
Result block: 0.0

Query block: Recorded test outcome, item "C/C(=N\Nc1cccc(Cl)n1)c1ccccn1"
Result block: 1.0

Query block: Recorded test outcome, item "Cn1cnc2nc[nH]c2c1=S"
Result block: 0.0

Query block: Recorded test outcome, item CCC(C)[C@H](NC(=O)Nc1cc(C(F)(F)F)cc(C(F)(F)F)c1)C(=O)N[C@@H](Cc1cn(C)cn1)C(=O)OC (stereo partly specified)
Result block: 1.0

Query block: Recorded test outcome, item CC1(c2ccc(Br)cc2)NC(=O)NC1=O (stereo unspecified)
Result block: 0.0

Query block: Recorded test outcome, item COc1ccc(C2=NN(C(=O)c3cc(-c4ccc(C)cc4)nc4ccccc34)C(c3cc(-c4ccccc4)nn3-c3ccccc3)C2)cc1 (stereo unspecified)
Result block: 0.0

Query block: Recorded test outcome, item CC(O)CN(CCO)CCN(CCO)CC(C)O (stereo unspecified)
Result block: 0.0

Query block: Recorded test outcome, item "C[C@@H](c1ccc2c(c1)[nH]c1ccc(Cl)cc12)c1nc2ccccc2[nH]1"
Result block: 0.0

###

- System: NCI-H226 lung
- method-notes: NCI-60 one-dose screen, 48 h (100 = growth as untreated, 0 = no growth, -100 = all killed)
- experimental-conditions: 10 µM unless noted
Compounds without any hit were thinned out: in the full panel of roughly 83,000, 20% have a hit. Activity calls are given as the source filed them. Rule for the calls: active = growth percent below 10; inactive = the rest.
test-readout: growth

- molecule: "O=C(N/N=C/c1cc(Cl)ccc1O)C(=O)N/N=C/c1cc(Cl)ccc1O"
  measured-on: "NCI-H226 lung"
  result: "74.9% (inactive)"
- molecule: "O=C(CBr)OCc1ccc([N+](=O)[O-])o1"
  measured-on: "NCI-H226 lung"
  result: "104% (inactive)"
- molecule: "O=c1c2c(c3ccccc3n1-c1ccccc1)NC(=S)NC2c1ccc(Cl)cc1 (stereo not given)"
  measured-on: "NCI-H226 lung"
  result: "65% (inactive)"
- molecule: "COc1cc(-c2nc(/C=C3/C(=O)Nc4ccccc43)c3ccccn23)cc(OC)c1OC"
  measured-on: "NCI-H226 lung"
  result: "82.5% (inactive)"

Query block: Requested field: growth. Item: "COc1cc(CNC(=O)CCCC/C=C/C(C)C)ccc1OCc1nnc(Nc2ccccc2F)o1"
Result block: 64.5% (inactive)

###

- Tested on: K-562 leukemia
- method-notes: NCI-60 one-dose screen, 48 h
- experimental-conditions: 10 µM unless noted
The panel holds about 83,000 compounds, 20% with a hit somewhere; the sample as a whole holds those more often. The source made the active and inactive calls. The calls were made as follows: active = growth percent below 10; inactive = the rest.
Choose the fitting class; nothing outside YES for active, NO for inactive is accepted.

- compound: "CC1(C)NC(=S)NC1=O"
  cat: "NO"
- compound: "O=C(CN1C(=O)NC(c2ccccc2)(c2ccccc2)C1=O)c1ccc(N2CCCC2)cc1"
  cat: "NO"
- compound: "C=CCNC(=S)NNc1ccc([N+](=O)[O-])cn1"
  cat: "NO"
- compound: "CC(O)CN(CCO)CCN(CCO)CC(C)O (configuration not stated)"
  cat: "NO"
- compound: "Nc1ccc(S(=O)(=O)c2ccc(NO)cc2)cc1"
  cat: "NO"
- compound: "O=c1c2c(c3ccccc3n1-c1ccccc1)NC(=S)NC2c1ccccc1 (configuration not stated)"
  cat: "NO"
- compound: "CCCC(=O)NNc1[nH]c(-c2ccc(OC)cc2)cc1C(=O)OCC"
  cat: "NO"
- compound: "CC(C)(C)c1ccc([I+]c2ccc(C(C)(C)C)cc2)cc1"
  cat: "YES"
- compound: "CC(CCN1CCN(CCC(C)CC(C)(C)C)C1CC(C)CC(C)(C)C)CC(C)(C)C (configuration not stated)"
  cat: "NO"
- compound: "CCCCCN1CCN(C(CC(=O)c2ccccc2)C(=O)c2ccccc2)CC1 (configuration not stated)"
  cat: "NO"

Attention now shifts to the item below.
Query block: Recorded test outcome, item "COc1cc2oc(-c3ccc(NC(=O)c4ccccc4)cc3)cc(=O)c2c(OC)c1OC"
Result block: NO

###

- Test system: COLO 205 colon
- method-notes: NCI-60 one-dose screen, 48 h
- experimental-conditions: 10 µM unless noted
The panel holds about 83,000 compounds, 20% with a hit somewhere; the sample as a whole holds those more often. Calls of active or inactive are those of the source. How the source made its calls: active means growth percent below 10; inactive means the rest.
Choose the fitting class; nothing outside Y for active, N for inactive is accepted.

Below, 4 molecules whose answers are already recorded.
- molecule: "O=Nc1c(-c2c(O)[nH]c3cc(Br)ccc23)[nH]c2ccccc12"
  cat: "Y"
- molecule: "Cc1nc2ccccc2c(=O)n1-c1cccc(OCc2cn(-c3cccc(O)c3)nn2)c1"
  cat: "N"
- molecule: "CC(=O)OCC(=O)[C@@]1(O)[C@H](C)C[C@H]2[C@@H]3C=C(C)C4=Cc5c(cnn5-c5ccc(F)cc5)C[C@]4(C)[C@H]3[C@@H](O)C[C@@]21C"
  cat: "Y"
- molecule: "COc1ccc(/C=C/C(=O)/C=C/c2cc3ccccc3[nH]c2=O)cc1"
  cat: "N"

Query block: Recorded test outcome, item "O=C(O)/C(Br)=C/c1c[nH]c2ccc(Br)cc12"
Result block: N

Query block: Recorded test outcome, item "Nc1nc(-c2cccc(Br)c2)cc(-c2cc3ccccc3oc2=O)n1"
Result block: N

Query block: Recorded test outcome, item CC(=O)C(CO)C(=O)Nc1ccccc1 (centres undefined)
Result block: N

Query block: Recorded test outcome, item "O=[N+]([O-])c1ccc(-c2ncc(-c3ccc(O)cc3O)[nH]2)cc1"
Result block: N

Query block: Recorded test outcome, item "O=C(O)c1ccc(Br)nc1"
Result block: N

Query block: Recorded test outcome, item O=C(OCC1CC2(Cl)C(Cl)=C(Cl)C1(Cl)C2(Cl)Cl)C1C(C(=O)OCC2CC3(Cl)C(Cl)=C(Cl)C2(Cl)C3(Cl)Cl)C2(Cl)C(Cl)=C(Cl)C1(Cl)C2(Cl)Cl (centres undefined)
Result block: N

Query block: Recorded test outcome, item "[N-]=[N+]=Nc1ncc(-c2ccc(C(F)(F)F)cc2)c(NC2CCCCCC2)n1"
Result block: N

Query block: Recorded test outcome, item "CCCCCCCCCCCCCCCC[n+]1cccc(C#N)c1"
Result block: N

Query block: Recorded test outcome, item CCC(C)C1NC(=O)C(CC(C)C)NC(=O)C(C)NC(=O)C(C(C)C)NC(=O)C(CCCCN)NC(=O)C(CC(C)C)NC(=O)C(C(C)C)NC(=O)[C@H](C)NC(=O)C(C(C)CC)NC(=O)C(CCCN=C(N)N)NC(=O)C(CCCCN)NC(=O)C(CCCN=C(N)N)NC(=O)C(CCCCN)NC(=O)C([C@H](C)CC)NC(=O)C(CCCCN)NC1=O (some centres undefined)
Result block: Y

Query block: Recorded test outcome, item "CC(=O)Nc1nc(C)c(C(=O)N/N=C/c2cccs2)s1"
Result block: N
